This collection of values is drawn from patent US20260167620A1.

Reported DNAUC values are given for each entry in this list.
Assay Overview: Mouse absorption test
Type: in vivo
Condition Context: mice, intragastric 10 mg/kg, plasma

Compound	DNAUC
NC(=O)c1nnc(N2CCCCC2)nc1Nc1ccc(C2CCN(CC3CCN(c4ccc5c(c4)C(=O)N(C4CCC(=O)NC4=O)C5=O)CC3)CC2)c(F)c1 (stereo not shown)	1955 AUC (h*ng/mL)/dose (mg/kg)
NC(=O)c1nnc(N2CCCCC2)nc1Nc1ccc(N2CCC(CN3CCN(c4cc5c(cc4F)C(=O)N(C4CCC(=O)NC4=O)C5=O)CC3)CC2)cc1 (stereo not shown)	1867 AUC (h*ng/mL)/dose (mg/kg)
NC(=O)c1nnc(N2CCCCC2)nc1Nc1ccc(N2CCC(CN3CCN(c4ccc5c(c4)C(=O)N(C4CCC(=O)NC4=O)C5=O)CC3)CC2)c(F)c1 (stereo not shown)	1941 AUC (h*ng/mL)/dose (mg/kg)
NC(=O)c1nnc(N2CCCCC2)nc1Nc1ccc(C2CCN(CC3CCN(c4ccc5c(c4)C(=O)N(C4CCC(=O)NC4=O)C5=O)C3)CC2)c(F)c1 (stereo not shown)	2223 AUC (h*ng/mL)/dose (mg/kg)
NC(=O)c1nnc(N2CCCCC2)nc1Nc1ccc(N2CCC(CN3CCN(c4cc5c(cc4F)C(=O)N(C4CCC(=O)NC4=O)C5=O)CC3)CC2)c(F)c1 (stereo not shown)	1686 AUC (h*ng/mL)/dose (mg/kg)
NC(=O)c1nnc(N2CCCCC2)nc1Nc1ccc(N2CCN(CC3CCN(c4ccc5c(c4)C(=O)N(C4CCC(=O)NC4=O)C5=O)C3)CC2)c(F)c1 (stereo not shown)	1648 AUC (h*ng/mL)/dose (mg/kg)
NC(=O)c1nnc(N2CCCCC2)nc1Nc1ccc(C2CCN(CC3CCN(c4ccc5c(c4)C(=O)N(C4CCC(=O)NC4=O)C5=O)C3)CC2)cc1 (stereo not shown)	2300 AUC (h*ng/mL)/dose (mg/kg)

###

Reported DC50 values are given for each entry in this list.
Measured On: BTK (Homo sapiens)
Construct: endogenous in cells; host or cells: Mino cells
Sequence (Q06187 whole entry): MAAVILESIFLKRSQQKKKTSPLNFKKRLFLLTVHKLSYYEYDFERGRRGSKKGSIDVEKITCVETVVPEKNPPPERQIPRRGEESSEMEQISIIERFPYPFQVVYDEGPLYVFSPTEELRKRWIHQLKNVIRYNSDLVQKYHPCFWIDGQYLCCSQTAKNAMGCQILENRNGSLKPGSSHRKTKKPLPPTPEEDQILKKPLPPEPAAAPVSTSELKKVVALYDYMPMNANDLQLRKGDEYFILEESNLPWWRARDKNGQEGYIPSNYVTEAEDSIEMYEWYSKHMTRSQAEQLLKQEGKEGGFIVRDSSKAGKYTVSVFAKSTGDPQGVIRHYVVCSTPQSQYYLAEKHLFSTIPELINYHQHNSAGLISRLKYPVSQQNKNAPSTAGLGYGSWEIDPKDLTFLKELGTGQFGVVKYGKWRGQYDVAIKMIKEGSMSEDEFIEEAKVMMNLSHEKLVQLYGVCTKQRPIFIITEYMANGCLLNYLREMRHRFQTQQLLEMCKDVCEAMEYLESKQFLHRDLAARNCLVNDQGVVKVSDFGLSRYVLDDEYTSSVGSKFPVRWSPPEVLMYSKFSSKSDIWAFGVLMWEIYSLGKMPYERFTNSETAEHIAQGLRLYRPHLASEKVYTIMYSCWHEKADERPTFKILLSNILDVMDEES
Assay Overview: BTK degradation activity test in Mino cells (Westernblot or Elisa)
Assay type: cell-based
Condition Context: 24-72 h incubation

Compound	DC50
NC(=O)c1nnc(N2CCCCC2)nc1Nc1ccc(N2CCC(CN3CCN(c4ccc(C5CCC(=O)NC5=O)cn4)CC3)CC2)c(F)c1 (centres unmarked)	< 10 nM
NC(=O)c1nnc(N2CCOCC2)nc1Nc1ccc(C2CCN(CC3CCN(c4ccc5c(c4)C(=O)N(C4CCC(=O)NC4=O)C5=O)C3)CC2)cc1 (centres unmarked)	< 10 nM
NC(=O)c1nnc(Oc2cccc(O)c2)nc1Nc1ccc(C2CCN(CC3CCN(c4ccc5c(c4)C(=O)N(C4CCC(=O)NC4=O)C5=O)C3)CC2)cc1 (centres unmarked)	< 10 nM
NC(=O)c1nnc(N2CCCCC2)nc1Nc1ccc(N2CCC(CN3CCN(c4cc5c(cc4F)C(=O)N(C4CCC(=O)NC4=O)C5=O)CC3)CC2)cc1 (centres unmarked)	< 10 nM
CC(OC(=O)C(C)(C)C)N1C(=O)CCC(N2C(=O)c3ccc(N4CCC(CN5CCC(c6ccc(Nc7nc(N8CCN(C)CC8)nnc7C(N)=O)cc6)CC5)C4)cc3C2=O)C1=O (centres unmarked)	< 10 nM
NC(=O)c1nnc(N2CCCCC2)nc1Nc1ccc(C2CCN(CC3CCN(c4cc5c(cc4F)C(=O)N(C4CCC(=O)NC4=O)C5)C3)CC2)cc1 (centres unmarked)	< 10 nM
CC(=O)N[C@@H]1CCCN(c2nnc(C(N)=O)c(Nc3ccc(N4CCN(CC5CCN(c6ccc(C(=O)NC7CCC(=O)NC7=O)nc6)CC5)CC4)c(F)c3)n2)C1 (some centres unmarked)	< 10 nM
CC(=O)N[C@@H]1CCCN(c2nnc(C(N)=O)c(Nc3ccc(N4CCN(CC5CCN(c6ccc(NC7CCC(=O)NC7=O)c(F)c6)CC5)CC4)c(F)c3)n2)C1 (some centres unmarked)	< 10 nM
NC(=O)c1nnc(-c2cccnc2)nc1Nc1ccc(C2CCN(CC3CCN(c4ccc5c(c4)C(=O)N(C4CCC(=O)NC4=O)C5=O)C3)CC2)cc1 (centres unmarked)	< 10 nM
NC(=O)c1nnc(N2CCCCC2)nc1Nc1ccc(N2CCN(CC3CCN(c4ccc(-c5ccc(=O)[nH]n5)cc4C(F)(F)F)CC3)CC2)c(F)c1	< 10 nM
NC(=O)c1cnc(N2CCCCC2)cc1Nc1ccc(C2CCN(CC3CCN(c4ccc5c(c4)C(=O)N(C4CCC(=O)NC4=O)C5=O)C3)CC2)cc1 (centres unmarked)	< 10 nM
N#Cc1cccc(Nc2nnc(C(N)=O)c(Nc3ccc(C4CCN(CC5CCN(c6ccc7c(c6)C(=O)N(C6CCC(=O)NC6=O)C7=O)C5)CC4)cc3)n2)c1 (centres unmarked)	< 10 nM
NC(=O)c1nnc(N2CCCCC2)nc1Nc1ccc(N2CCN(CC3CCN(c4ccc(N5CCC(=O)NC5=O)cc4)CC3)CC2)c(F)c1	< 10 nM
NC(=O)c1cnc(N2CCCCC2)nc1Nc1ccc(C2CCN(CC3CCN(c4ccc5c(c4)C(=O)N(C4CCC(=O)NC4=O)C5=O)C3)CC2)c(F)c1 (centres unmarked)	< 10 nM
CC(=O)N[C@@H]1CCCN(c2nnc(C(N)=O)c(Nc3ccc(N4CCN(CC5CCN(c6ccc(C(=O)NC7CCC(=O)NC7=O)c(F)c6)CC5)CC4)c(F)c3)n2)C1 (some centres unmarked)	< 10 nM
NC(=O)c1nnc(N2CCCCC2)nc1Nc1ccc(N2CCN(CC3CCN(c4ccc(C(=O)NC5CCC(=O)NC5=O)c(F)c4)CC3)CC2)c(F)c1 (centres unmarked)	< 10 nM
CC(=O)N[C@@H]1CCCN(c2nnc(C(N)=O)c(Nc3ccc(N4CCN(CC5CCN(c6ccc(N7CCC(=O)NC7=O)cc6)CC5)CC4)c(F)c3)n2)C1	< 10 nM
NC(=O)c1nnc(N2CCCCC2)nc1Nc1ccc(C2CCN(CC3CCN(c4ccc5c(=O)n(C6CCC(=O)NC6=O)ccc5c4)C3)CC2)cc1 (centres unmarked)	< 10 nM
CC(C)[C@H](N)C(=O)OCN1C(=O)CCC(N2C(=O)c3ccc(N4CCC(CN5CCC(c6ccc(Nc7nc(N8CCCCC8)nnc7C(N)=O)cc6)CC5)C4)cc3C2=O)C1=O (some centres unmarked)	< 10 nM
COc1cc(N2CCC(CN3CCN(c4ccc(Nc5nc(N6CCCCC6)nnc5C(N)=O)cc4F)CC3)CC2)ccc1N1CCC(=O)NC1=O	< 10 nM
NC(=O)c1nnc(N2CCCCC2)nc1Nc1ccc(N2CCN(CC3CCN(c4ccc(NC5CCC(=O)NC5=O)c(F)c4)CC3)CC2)c(F)c1 (centres unmarked)	< 10 nM
NC(=O)c1nc(F)c(N2CCCCC2)nc1Nc1ccc(C2CCN(CC3CCN(c4ccc5c(c4)C(=O)N(C4CCC(=O)NC4=O)C5=O)C3)CC2)cc1 (centres unmarked)	< 10 nM
NC(=O)c1nnc(N2CCNCC2)nc1Nc1ccc(C2CCN(CC3CCN(c4ccc5c(c4)C(=O)N(C4CCC(=O)NC4=O)C5=O)C3)CC2)cc1 (centres unmarked)	< 10 nM

###

Test system: OCI-LY10 cells
Assay Overview: Inhibitory activity on OCI-LY10 cell proliferation (MTS)
Format: cell-based
Condition Context: Homo sapiens, 72 h or 168 h
Reported IC50 values are given for each entry in this list.
Value Kind: IC50 (nM)

Compound	Unit Descriptor	Observed Result
NC(=O)c1nnc(N2CCCCC2)nc1Nc1ccc(C2CCN(CC3CCN(c4ccc5c(c4)C(=O)N(C4CCC(=O)NC4=O)C5=O)C3)CC2)nn1 (stereo not drawn)	nM	0.18
Cc1cc(N2CCN(CC3CCN(c4ccc(Nc5nc(N6CCCCC6)nnc5C(N)=O)cc4F)CC3)CC2)ccc1N1CCC(=O)NC1=O	nM	1.09
NC(=O)c1nnc(N2CCCCC2)nc1Nc1ccc(N2CCN(CC3CCN(c4ccc(C(=O)NC5CCC(=O)NC5=O)nc4)C3)CC2)c(F)c1 (stereo not drawn)	nM	1.15
CC(=O)N[C@@H]1CCCN(c2nnc(C(N)=O)c(Nc3ccc(C4CCN(CC5CCN(c6ccc7c(c6)C(=O)N(C6CCC(=O)NC6=O)C7=O)CC5)CC4)cc3)n2)C1 (stereo partly drawn)	nM	0.69
NC(=O)c1nnc(N2CCCCC2)nc1Nc1cnc(C2CCN(CC3CCN(c4ccc5c(c4)C(=O)N(C4CCC(=O)NC4=O)C5=O)C3)CC2)nc1 (stereo not drawn)	nM	0.41
NC(=O)c1nnc(N2CCCCC2)nc1Nc1ccc(N2CCN(CC3CCN(c4ccc(NC5CCC(=O)NC5=O)nc4)CC3)CC2)c(F)c1 (stereo not drawn)	nM	1.59

###

Measured On: BTK (Homo sapiens)
Construct: endogenous in cells; host or cells: Mino cells
Assay Overview: BTK degradation activity test in Mino cells (Westernblot or Elisa)
Format: cell-based
Condition Context: 24-72 h incubation
Value Kind: DC50

Compound	Value Kind	Observed Result
Cc1nc(C(N)=O)c(Nc2ccc(C3CCN(CC4CCN(c5ccc6c(c5)C(=O)N(C5CCC(=O)NC5=O)C6=O)C4)CC3)cc2)nc1N1CCCCC1 (centres unmarked) [Compound 039]	DC50	< 10 nM
NC(=O)c1nnc(N2CCCCC2)nc1Nc1ccc(C2CCN(CC3CCN(c4ccc5c(c4)CN(C4CCC(=O)NC4=O)C5=O)C3)CC2)cc1 (centres unmarked) [Compound 009]	DC50	< 10 nM
CC(OC(=O)C(C)(C)C)N1C(=O)CCN(c2ccc(N3CCN(CC4CCN(c5ccc(Nc6nc(N7CCCCC7)nnc6C(N)=O)cc5F)CC4)CC3)cc2)C1=O (centres unmarked) [Compound 072]	DC50	< 10 nM
CC(=O)N[C@@H]1CCCN(c2nnc(C(N)=O)c(Nc3ccc(C4CCN(CC5CCN(c6ccc7c(c6)C(=O)N(C6CCC(=O)NC6=O)C7=O)CC5)CC4)cc3)n2)C1 (some centres unmarked) [Compound 023]	DC50	< 10 nM
COc1nc(C(N)=O)c(Nc2ccc(C3CCN(CC4CCN(c5ccc6c(c5)C(=O)N(C5CCC(=O)NC5=O)C6=O)C4)CC3)cc2)nc1N1CCCCC1 (centres unmarked) [Compound 043]	DC50	< 10 nM
NC(=O)c1cnc(N2CCCCC2)nc1Nc1ccc(C2CCN(CC3CCN(c4ccc5c(c4)C(=O)N(C4CCC(=O)NC4=O)C5=O)C3)CC2)cc1 (centres unmarked) [Compound 033]	DC50	< 10 nM
NC(=O)c1nnc(N2CCCCC2)nc1Nc1ccc(C2CCN(CC3CCN(c4ccc5c(c4)C(=O)N(C4CCC(=O)NC4=O)C5=O)C3)CC2)nn1 (centres unmarked) [Compound 004]	DC50	< 10 nM
NC(=O)c1nnc(N2CCCCC2)nc1Nc1ccc(N2CC(CN3CCN(c4ccc5c(c4)C(=O)N(C4CCC(=O)NC4=O)C5=O)CC3)C2)cc1 (centres unmarked) [Compound 049]	DC50	< 10 nM
NC(=O)c1nnc(N2CCCCC2)nc1Nc1ccc(C2CCN(CC3CN(c4ccc5c(c4)C(=O)N(C4CCC(=O)NC4=O)C5=O)C3)CC2)cc1 (centres unmarked) [Compound 008]	DC50	< 10 nM
NC(=O)c1nnc(N2CCCCC2)nc1Nc1ccc(C2CCN(C(=O)C3CCN(c4ccc5c(c4)C(=O)N(C4CCC(=O)NC4=O)C5=O)C3)CC2)cc1 (centres unmarked) [Compound 055]	DC50	< 10 nM
NC(=O)c1nnc(N2CCCCC2)nc1Nc1ccc(N2CCC(CN3CCN(c4ccc(-c5ccc(=O)[nH]n5)cc4C(F)(F)F)CC3)CC2)c(F)c1 [Compound 089]	DC50	< 10 nM
NC(=O)c1nnc(N2CCCCC2)nc1Nc1ccc(N2CCN(C(=O)C3CN(c4ccc5c(c4)C(=O)N(C4CCC(=O)NC4=O)C5=O)C3)CC2)cc1 (centres unmarked) [Compound 061]	DC50	< 10 nM
CN1CCN(c2nnc(C(N)=O)c(Nc3ccc(N4CCC(CN5CCN(c6ccc(N7CCC(=O)NC7=O)cc6)CC5)CC4)nc3)n2)CC1 [Compound 047]	DC50	< 10 nM
NC(=O)c1nnc(N2CCCCC2)nc1Nc1ccc(N2CCN(CC3CCN(c4ncc(-c5ccc(=O)[nH]n5)cc4C(F)(F)F)CC3)CC2)c(F)c1 [Compound 081]	DC50	< 10 nM
NC(=O)c1nnc(N2CCCCC2)cc1Nc1ccc(C2CCN(CC3CCN(c4ccc5c(c4)C(=O)N(C4CCC(=O)NC4=O)C5=O)C3)CC2)cc1 (centres unmarked) [Compound 040]	DC50	< 10 nM
NC(=O)c1nnc(N2CCOCC2)nc1Nc1ccc(N2CCN(CC3CCN(c4ccc(-c5ccc(=O)[nH]n5)cc4C(F)(F)F)CC3)CC2)c(F)c1 [Compound 103]	DC50	< 10 nM
NC(=O)c1nnc(N2CCCCC2)nc1Nc1ccc(N2CCN(CC3CCN(c4ccc(C(=O)NC5CCC(=O)NC5=O)nc4)CC3)CC2)c(F)c1 (centres unmarked) [Compound 085]	DC50	< 10 nM
NC(=O)c1nnc(N2CCOCC2)nc1Nc1ccc(N2CCN(CC3CCN(c4ccc(N5CCC(=O)NC5=O)cc4)CC3)CC2)c(F)c1 [Compound 099]	DC50	< 10 nM
NC(=O)c1nnc(N2CCCCC2)nc1Nc1ccc(C2CCN(CC3CCN(c4ccc(NC5CCC(=O)NC5=O)cn4)C3)CC2)cc1 (centres unmarked) [Compound 014]	DC50	< 10 nM
CC(C)(C)C(=O)OCN1C(=O)CCN(c2ccc(N3CCN(CC4CCN(c5ccc(Nc6nc(N7CCCCC7)nnc6C(N)=O)cc5F)CC4)CC3)cc2)C1=O [Compound 066]	DC50	< 10 nM
NC(=O)c1nnc(N2CCCCC2)nc1Nc1ccc(N2CCC(CN3CCN(c4ccc(N5CCC(=O)NC5=O)cc4)CC3)CC2)c(F)c1 [Compound 050]	DC50	< 10 nM
NC(=O)c1nnc(-c2nccs2)nc1Nc1ccc(C2CCN(CC3CCN(c4ccc5c(c4)C(=O)N(C4CCC(=O)NC4=O)C5=O)C3)CC2)cc1 (centres unmarked) [Compound 024]	DC50	< 10 nM
NC(=O)c1nnc(N2CCCCC2)nc1Nc1ccc(C2CCN(CC3CCN(c4ccc5c(c4)C(=O)N(C4CCC(=O)NC4=O)C5=O)CC3)CC2)c(F)c1 (centres unmarked) [Compound 007]	DC50	< 10 nM
